assay overview: Mammalian cell toxicity (MTT assay) and selectivity index
Format: cell-based, Human
stated conditions: human, A549 cells (human lung adenocarcinoma); MTT, 48 h incubation

[
  {
    "molecule": "c1cnc2c(c1)ccc1cccnc12",
    "CC50 at 48 h, mg/L": 4.3
  },
  {
    "molecule": "O=C1C(=O)c2cccnc2-c2ncccc21 [phendione, 1,10-phenanthroline-5,6-dione, reference compound]",
    "CC50 at 48 h, mg/L": 2.02
  }
]

###

Tested on: Candida haemulonii var. vulnera
assay overview: Planktonic growth, broth microdilution (CLSI M27-A3), MIC
Format: cell-based
stated conditions: isolate LIP Ch11; planktonic, 48 h, 37°C

[
  {
    "molecule": "O.O.O.O.O.O.O=C([O-])CCCCCCC(=O)[O-].O=C([O-])CCCCCCC(=O)[O-].O=C([O-])CCCCCCC(=O)[O-].O=C([O-])CCCCCCC(=O)[O-].[Mn+2].[Mn+2].[Mn+2].[Mn+2].c1cnc2c(c1)ccc1cccnc12.c1cnc2c(c1)ccc1cccnc12.c1cnc2c(c1)ccc1cccnc12.c1cnc2c(c1)ccc1cccnc12.c1cnc2c(c1)ccc1cccnc12.c1cnc2c(c1)ccc1cccnc12.c1cnc2c(c1)ccc1cccnc12.c1cnc2c(c1)ccc1cccnc12",
    "readout units": "µg/mL",
    "MIC": 2
  },
  {
    "molecule": "O.O.O=C([O-])c1ccccc1C(=O)[O-].[Mn+2].c1cnc2c(c1)ccc1cccnc12 [compound 8, [Mn(ph)(phen)(H2O)2]]",
    "readout units": "µg/mL",
    "MIC": 4
  }
]

###

Catalogue of compounds with associated MIC
Test system: Candida duobushaemulonii
assay overview: Planktonic growth, broth microdilution (CLSI M27-A3), MIC
Type: cell-based
stated conditions: isolate LIP Ch1; planktonic, 48 h, 37°C

[
  {
    "compound": "O.O.O=C([O-])c1ccccc1C(=O)[O-].[Cu+2].c1cnc2c(c1)ccc1cccnc12 [compound 1, [Cu(ph)(phen)(H2O)2]]",
    "MIC": ">32 µg/mL"
  },
  {
    "compound": "O.O.O=C([O-])c1ccccc1C(=O)[O-].[Mn+2].c1cnc2c(c1)ccc1cccnc12 [compound 8, [Mn(ph)(phen)(H2O)2]]",
    "MIC": "8 µg/mL"
  },
  {
    "compound": "O.O.O.O.O=C1C(=O)c2cccnc2-c2ncccc21.O=C1C(=O)c2cccnc2-c2ncccc21.O=C1C(=O)c2cccnc2-c2ncccc21.[Cu+2].[O-][Cl+3]([O-])([O-])[O-].[O-][Cl+3]([O-])([O-])[O-] [compound 6, [Cu(phendione)3](ClO4)2.4H2O]",
    "MIC": "8 µg/mL"
  },
  {
    "compound": "O.O.O.O.O=C([O-])c1cccc(C(=O)[O-])c1.O=C([O-])c1cccc(C(=O)[O-])c1.[Mn+2].[Mn+2].c1cnc2c(c1)ccc1cccnc12.c1cnc2c(c1)ccc1cccnc12.c1cnc2c(c1)ccc1cccnc12 [compound 10, [Mn2(isoph)2(phen)3].4H2O]",
    "MIC": "8 µg/mL"
  },
  {
    "compound": "O.O.O.O=C([O-])CCCCCCCCCC(=O)[O-].[Ag+].[Ag+].c1cnc2c(c1)ccc1cccnc12.c1cnc2c(c1)ccc1cccnc12.c1cnc2c(c1)ccc1cccnc12 [compound 18, [Ag2(phen)3(udda)].3H2O]",
    "MIC": "0.5 µg/mL"
  }
]
